B1: MATN2 (parent)
chain: FIVDILQFLDIGPDVTRVGLLQYG

- Variants of: B1
- assay-notes: protein stability index of a GFP-peptide fusion (GPS, HEK-293T) (PSI 1-6); higher = more stable;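 note: lentivirally expressed fusions sorted by FACS into six bins by GFP to DsRed ratio, PSI derived from sequencing read proportions per bin multiplied by bin number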
- test-parameters: c terminus: a fixed tail appended
Quick rule for you: protein stability index at 3 or higher means YES, lower means NO.

FIVDILQFLDIGIDVTRVGLLQYG [P13I] ... NO
FIVDILQFLDIGPDVTRVGLLQLG [Y23L] ... NO
FIVDIIQFLDIGPDVTRVGLLQYG [L6I] ... NO
FIVDILQFLWIGPDVTRVGLLQYG [D10W] ... NO
FIVDILQFLDILPDVTRVGLLQYG [G12L] ... NO
FIVDILQFLDIGPDVTRVGGLQYG [L20G] ... YES

# evaluate next
Prompt: Does protein stability index meet or surpass 3 for FIVDILQFLDIGPDVTRVGLPQYG [L21P] ?
Response: YES
